Protocol Notes: Cytotoxicity activity against human HepG2 cells assessed by CellTiter-Glo luminescent cell viability assay.
Format: toxicity, cell-based
Set-up: assay stage confirmatory assay, source tissue liver
Assay Setup: HepG2 cells, read-out: IC50 relative
The source made the active and inactive calls. The rule behind the calls is not given here.
Log the outcome using a class from yes (1) = active, no (0) = inactive

Use these answered entries as a reference point.
| Molecule | Category |
| --- | --- |
| CCc1nc(C)c([C@H](C)N(C)Cc2cccnc2N)s1 | yes (1) |
| CN(C)c1ccc(Cl)cc1NC(=O)c1cn(CCC2CCCCN2)nn1 (stereo unspecified) | yes (1) |
| O=C1c2ccccc2C(=O)N1Cn1ncc(Cl)c(Cl)c1=O | yes (1) |

Which outcome did this test record for the molecule Nc1nc(NCCNc2ncc(-n3ccnc3)c(-c3ccc(Cl)cc3Cl)n2)ccc1[N+](=O)[O-] ? no (0)

Which outcome did this test record for the molecule O=C(Cn1ncc(Cl)c(Cl)c1=O)NCc1ccccc1 ? yes (1)

Which outcome did this test record for the molecule N#Cc1ccc(NC(=O)Cn2c(=O)ccn(Cc3ccccc3)c2=O)cc1 ? no (0)

Where do the numbers come from? From ChEMBL document CHEMBL5303711.
